# normalized growth values compiled below
# assay.explanation: chemical genetic growth profiling, strain panel (AID 1159580);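 also: tested at 20 µM; growth read once vehicle control cultures reached saturation at 30 °C; 1 = growth at the plate median or of vehicle wells; lower values mean less growth of the strain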
# condition.details: S. cerevisiae deletion strains, growth OD, locus YDR388W, active compounds read low
Out of some 5,500 compounds screened, about 2,000 (36%) were called active. Not shown: some 18% with an inconclusive outcome. Some of the results follow.
Response field accepts a number only; no unit should be typed.

compound	observation.type	numeric.readout
O=C(O)CCCCCCCC(=O)O	normalized growth	0.98
FC(F)(F)c1cccc(N2CCNCC2)c1	normalized growth	0.977
O=C(O)C(O)C(O)C(O)C(O)C(=O)O (stereo not drawn)	normalized growth	0.993
NCCCCC(=O)O	normalized growth	0.986
COc1ccc2c(c1)OCC(Cc1ccc(OC)c(OC)c1)C2=O (stereo not drawn)	normalized growth	1.01

// moving on: another record for normalized growth
IN: Quick one: normalized growth for `C1N2CN3CN1CN(C2)C3` ?
OUT: 0.976

---

# assay.explanation: chemical genetic growth profiling, strain panel (AID 1159580);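 also: tested at 20 µM; growth read once vehicle control cultures reached saturation at 30 °C; 1 = growth at the plate median or of vehicle wells; lower values mean less growth of the strain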
# condition.details: S. cerevisiae deletion strains, growth OD, locus YMR001C, strain CDC5, active compounds read low
Hit rate of the full screen: of about 5,500 compounds, about 2,000 (36%) were called active. Another 18% or so got no clear call; they are omitted. This is one part of the list.
# normalized growth values compiled below
Response field accepts a number only; no unit should be typed.

Study these solved cases before continuing.
compound	numeric.readout
Clc1ccccc1-c1csc(-c2ccncc2)n1	0.963
Cn1nccc1-c1cc(Cl)cc(Cl)c1O	0.947

// moving on: another record for normalized growth
IN: Quick one: normalized growth for `Clc1ccccc1-c1csc(-c2cccnc2)n1` ?
OUT: 0.913

---

# assay.explanation: chemical genetic growth profiling, strain panel (AID 1159580);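 also: tested at 20 µM; growth read once vehicle control cultures reached saturation at 30 °C; 1 = growth at the plate median or of vehicle wells; lower values mean less growth of the strain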
# condition.details: S. cerevisiae deletion strains, growth OD, locus YML016C, strain PPZ1
The campaign covered roughly 5,500 compounds. About 2,000 (36%) were called active. About 18% were inconclusive and are not listed. Rule as the data show it: active = normalized growth mostly below about 0.91 (no sharp cut-off); inconclusive = no clear call, values can overlap the other calls; inactive = mostly above about 0.92. This is one part of the list.
Your reply should match one of these outcome classes. active, inactive

Here's what some known entries look like.
compound	assigned.category
COC(=O)/C(C)=C\CC12OC(C)(C)C3CC(C=C4C(=O)c5c(OC)c6c(c(CC=C(C)C)c5OC431)OC(C)(CCC=C(C)C)C=C6)C2=O (centres undefined)	inactive
Clc1ccc(COC(Cn2ccnc2)c2ccc(Cl)cc2Cl)cc1 (centres undefined)	active
C1N2CN3CN1CN(C2)C3	inactive
CC(=O)C1CC[C@H]2C3CC[C@H]4C[C@H](O)CC[C@]4(C)C3CC[C@]12C (some centres undefined)	inactive
O=C(O)C1CCCNC1 (centres undefined)	inactive
O=c1oc2ccccc2cc1O	inactive

IN: Dear colleague, could you share the recorded outcome for `Cc1onc(-c2ccccc2)c1-c1ccc(S(N)(=O)=O)cc1` when you have a moment?
OUT: inactive

IN: Record: C[C@]12C=CC(=O)C=C1CCC1C2[C@@H](O)C[C@@]2(C)C1CC[C@]2(O)C(=O)CO (some centres undefined)
OUT: inactive

IN: Record: O=c1cccc2n1CC1CC2CN2CCCC[C@@H]12 (some centres undefined)
OUT: inactive

IN: Record: `NC(N)=NCCN1CCCCCCC1`
OUT: inactive

IN: Record: C[C@]12CCC3C(CC[C@H]4C[C@H](O)CC[C@]34C)C1CC[C@@H]2O (some centres undefined)
OUT: inactive

IN: Record: `CCCn1c(=O)c2[nH]c(C3CCCC3)nc2n(CCC)c1=O`
OUT: inactive

IN: Record: `CC(=O)NCCc1c[nH]c2ccc(O)cc12`
OUT: inactive

IN: Record: `CC(=O)O[C@]1(C)CC[C@@]23CC1C(C)(C)[C@@H]2CC[C@H]3C`
OUT: inactive
